# Tested on: LOX IMVI melanoma
# methodSummary: NCI-60 one-dose screen, 48 h (100 = growth as untreated, 0 = no growth, -100 = all killed)
# particulars: 10 µM unless noted
The panel holds about 83,000 compounds, 20% with a hit somewhere; the sample as a whole holds those more often. Active and inactive are the calls of the source. The calls were made as follows: active = growth percent below 10; inactive = the rest.
reportedMetric: growth

Worked set:
{"columns": ["molecule", "growth"],
 "data": [
  ["CC(C)c1ccc(C(=O)OC(=O)c2ccc(C(C)C)cc2)cc1", "91.5% (inactive)"],
  ["O=C(/C=C/c1ccccc1)c1ccc2ccccc2c1", "89.3% (inactive)"],
  ["O=C(CCc1nc(-c2cccc(Cl)c2)no1)Nc1ccccn1", "97.3% (inactive)"],
  ["CCCCN(Cc1ccc(C(=O)NO)cc1)C(=O)Nc1ccc(OCCCCCCCCCn2cc(CCCCC(=O)N[C@H](C(=O)N3C[C@H](O)C[C@H]3C(=O)NCc3ccc(-c4scnc4C)cc3)C(C)(C)C)nn2)cc1", "23.2% (inactive)"],
  ["CC1(C)N=C(N)N=C(N)N1c1cccc(CN)c1", "89.2% (inactive)"],
  ["CCCCCCNc1cc(C)nc2ccc(OC)cc12", "61.4% (inactive)"]
]}

Identify the reported growth for the following entry. `COc1cc2nc(Nc3ccc(F)cc3)nc(N)c2cc1OC`
101% (inactive)

Identify the reported growth for the following entry. `CCCCCOC(=O)c1cccc(NC(=O)CN(CC)CC)c1`
101% (inactive)

Identify the reported growth for the following entry. CCC(C)NCc1ccccc1 (centres undefined)
102% (inactive)

Identify the reported growth for the following entry. `CC(=O)C(C(C)=O)c1nc2sc3cc(Cl)ccc3n2c(=N)c1C#N`
79.7% (inactive)

Identify the reported growth for the following entry. `Nc1ccc(S(=O)(=O)Nc2ccsc2-c2nc(-c3ccccc3)no2)cc1`
68% (inactive)

Identify the reported growth for the following entry. `CC(C)(C)Nc1c(-c2c3ccccc3cc3ccccc23)nc2ccccn12`
85.9% (inactive)

Identify the reported growth for the following entry. `CCCCCCCC/C=C/CCCCCCCC1=NCC[N+]1(CCO)CCO`
52% (inactive)

Identify the reported growth for the following entry. COc1cc(C2CC(c3ccc(Nc4nc(Nc5ccc(F)cc5)nc(Nc5ccc(Cl)cc5)n4)cc3)=NN2C(C)=O)cc(OC)c1OC (centres undefined)
82.8% (inactive)

Identify the reported growth for the following entry. `O=c1[nH]c(NCc2nnnn2-c2ccc(Br)cc2)nc2sc3c(c12)CCCC3`
95.8% (inactive)

Identify the reported growth for the following entry. `CCCCCCNC(=O)c1cc(NCc2cc(O)ccc2O)ccc1O`
67.7% (inactive)

Identify the reported growth for the following entry. `COc1ccc(-c2cn(-c3cccc(C(=O)/C=C/c4cc(OC)c(OC)c(OC)c4)c3)c(=O)[nH]2)cc1`
-68% (active)

Identify the reported growth for the following entry. `CC1=CC(=O)C(C(C)C)=CC1=Nc1cc(Br)c(O)c(Br)c1`
24% (inactive)

Identify the reported growth for the following entry. CNC(=O)NCC1OC(n2cnc3c(NC(=O)Nc4ccccc4)ncnc32)C2OC(C)(C)OC12 (centres undefined)
100% (inactive)

Identify the reported growth for the following entry. `CCCCNCC(=O)Nc1ccc(C(=O)OCC)cc1`
103% (inactive)

Identify the reported growth for the following entry. `CC(C)(C)CC(C)(C)Nc1c(-c2ccc(-c3ccccc3)cc2)nc2cnccn12`
97.2% (inactive)

Identify the reported growth for the following entry. `CCCCCCCC/C=C\CCCCCCCC(=O)Oc1cccc2cccnc12`
79.8% (inactive)
